Target: Alpha-2A adrenergic receptor (Homo sapiens, UniProt P08913); note: assay procedure not described here
Sequence (P08913 whole entry): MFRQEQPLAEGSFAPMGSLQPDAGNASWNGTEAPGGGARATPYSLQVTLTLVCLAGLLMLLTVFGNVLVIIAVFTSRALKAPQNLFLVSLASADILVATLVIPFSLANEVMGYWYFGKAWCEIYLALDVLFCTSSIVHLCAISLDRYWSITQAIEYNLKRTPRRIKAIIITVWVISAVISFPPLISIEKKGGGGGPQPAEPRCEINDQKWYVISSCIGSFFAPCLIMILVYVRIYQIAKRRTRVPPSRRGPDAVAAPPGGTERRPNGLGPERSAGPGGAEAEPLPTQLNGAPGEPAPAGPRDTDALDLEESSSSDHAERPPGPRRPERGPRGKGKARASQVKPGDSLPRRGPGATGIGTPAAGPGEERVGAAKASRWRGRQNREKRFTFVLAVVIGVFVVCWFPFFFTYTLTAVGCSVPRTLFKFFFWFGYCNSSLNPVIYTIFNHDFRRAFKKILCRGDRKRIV
Type: functional, cell-based
observedProperty: AC50

# AC50 of Clc1ccc2c(N3CCN(CCCN4CCN(c5ccnc6cc(Cl)ccc56)CC4)CC3)ccnc2c1 [PIPERAQUINE] = > 30 µM

Looking up OCc1cc(C(O)CNCCCCCCOCCCCc2ccccc2)ccc1O (stereo not given) [SALMETEROL] , I found its AC50 recorded as > 10 µM

AC50 in this record for NC(=O)CN1CCCC1=O : > 30 µM

Entry C/N=C(\NC)NCc1ccccc1 [BETHANIDINE] , AC50 reported as > 30 µM

Field AC50 (entry C=C[C@H]1C[N@@]2CC[C@H]1C[C@@H]2[C@@H](O)c1ccnc2ccc(OC)cc12 [QUINIDINE] ) reads 12 µM

###

Biological target: Neuropeptide Y receptor type 1 (Homo sapiens); note: assay procedure not described here
Sequence (P25929 whole entry): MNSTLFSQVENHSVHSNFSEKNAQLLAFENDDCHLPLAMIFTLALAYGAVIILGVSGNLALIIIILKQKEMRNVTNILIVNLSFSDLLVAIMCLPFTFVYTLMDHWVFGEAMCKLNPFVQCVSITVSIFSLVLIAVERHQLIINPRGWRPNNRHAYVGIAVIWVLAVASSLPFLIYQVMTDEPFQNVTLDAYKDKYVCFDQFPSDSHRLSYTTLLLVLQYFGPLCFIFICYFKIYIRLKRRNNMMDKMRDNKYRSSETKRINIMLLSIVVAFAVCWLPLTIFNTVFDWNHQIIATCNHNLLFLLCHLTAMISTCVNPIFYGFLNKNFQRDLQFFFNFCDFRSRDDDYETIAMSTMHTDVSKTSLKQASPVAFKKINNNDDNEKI
Details: read-out: AC50
Provide the reported AC50 of each item.

Lookup result for NC(=O)CN1CCCC1=O ; measured AC50: > 30 µM

Reported AC50 of C=C1/C(=C\C=C2/CCC[C@]3(C)[C@@H]([C@H](C)/C=C/[C@@H](O)C4CC4)CC[C@@H]23)C[C@@H](O)C[C@@H]1O [CALCIPOTRIENE] : > 30 µM

Looking up CCC[C@H](NC(=O)[C@@H]1[C@H]2CCC[C@H]2CN1C(=O)[C@@H](NC(=O)[C@@H](NC(=O)c1cnccn1)C1CCCCC1)C(C)(C)C)C(=O)C(=O)NC1CC1 , I found its AC50 recorded as > 30 µM

# compound CC1=C(C)C(=O)C(C(CCCCCC(=O)O)c2ccccc2)=C(C)C1=O (stereo not drawn) [SERATRODAST] ; its AC50 = > 30 µM

Lab book: AC50 of C[C@@H](Oc1cc(-c2cnn(C3CCNCC3)c2)cnc1N)c1c(Cl)ccc(F)c1Cl [CRIZOTINIB] noted as 8.44 µM

What the record says about O=C(O)c1cn(C2CC2)c2cc(N3CCNCC3)c(F)cc2c1=O [CIPROFLOXACIN] : AC50 is > 30 µM

Measured AC50 of CC(C(=O)O)c1ccc(-c2ccccc2)c(F)c1 (stereo not drawn) [FLURBIPROFEN] : > 10 µM

The recorded AC50 for entry N[C@@H](CC(=O)N1CCn2c(nnc2C(F)(F)F)C1)Cc1cc(F)c(F)cc1F [SITAGLIPTIN] equals > 10 µM

###

molecular target: Neuropeptide Y receptor type 1 (Homo sapiens); settings: read-out: AC50; note: assay procedure not described here
observedProperty: AC50

Record C=C[C@@]1(C)CC(=O)[C@]2(O)[C@@]3(C)[C@@H](O)CCC(C)(C)[C@@H]3[C@H](O)[C@H](OC(C)=O)[C@@]2(C)O1 , field AC50: > 30 µM

GET /value?item= COc1ccc(CC2c3cc(OC)c(OC)cc3CC[N+]2(C)CCC(=O)OCCCCCOC(=O)CC[N+]2(C)CCc3cc(OC)c(OC)cc3C2Cc2ccc(OC)c(OC)c2)cc1OC (configuration not stated) &field=AC50 returns > 30 µM

Lab note: CO[C@H]1/C=C/O[C@@]2(C)Oc3c(C)c(O)c4c(O)c(c(/C=N/N5CCN(C)CC5)c(O)c4c3C2=O)NC(=O)/C(C)=C\C=C\[C@H](C)[C@H](O)[C@@H](C)[C@@H](O)[C@@H](C)[C@H](OC(C)=O)[C@@H]1C gave AC50 of 22.5 µM

Given item OC[C@H]1O[C@@](CO)(O[C@H]2O[C@H](CO)[C@@H](O)[C@H](O)[C@H]2O)[C@@H](O)[C@@H]1O , the value recorded as its AC50 is > 30 µM

Notebook: CN(C)CC[C@@H](c1ccc(Cl)cc1)c1ccccn1 , AC50 read as > 30 µM

AC50 for CCC(COC(=O)c1cc(OC)c(OC)c(OC)c1)(c1ccccc1)N(C)C (configuration not stated) is > 30 µM

For Nc1ncn([C@H]2C[C@H](O)[C@@H](CO)O2)c(=O)n1 the compound record lists AC50 as > 30 µM

###

Target: Alpha-2A adrenergic receptor (Homo sapiens, UniProt P08913); note: assay procedure not described here
Sequence (P08913 whole entry): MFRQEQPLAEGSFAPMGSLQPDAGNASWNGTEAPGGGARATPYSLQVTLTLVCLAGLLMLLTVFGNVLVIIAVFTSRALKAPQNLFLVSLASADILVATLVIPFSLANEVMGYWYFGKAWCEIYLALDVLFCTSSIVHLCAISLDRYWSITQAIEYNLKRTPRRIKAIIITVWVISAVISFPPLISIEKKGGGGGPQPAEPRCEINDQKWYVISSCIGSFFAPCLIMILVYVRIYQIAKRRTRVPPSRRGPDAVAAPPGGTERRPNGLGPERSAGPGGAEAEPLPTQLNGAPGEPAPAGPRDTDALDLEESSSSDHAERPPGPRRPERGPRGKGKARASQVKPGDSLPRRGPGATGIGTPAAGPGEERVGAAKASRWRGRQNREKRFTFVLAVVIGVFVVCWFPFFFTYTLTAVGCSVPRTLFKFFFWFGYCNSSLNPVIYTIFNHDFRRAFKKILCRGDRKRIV
Assay type: functional, cell-based
observedProperty: AC50

Recorded AC50 (molecule O=C1CN(/N=C/c2ccc(-c3ccc([N+](=O)[O-])cc3)o2)C(O)=N1 [DANTROLENE] ): > 10 µM

molecule CCOC(=O)C1=C[C@]2(CC)CCCN3CCc4c(n1c1ccccc41)[C@@H]32 [VINPOCETINE] , AC50 observed: 19 µM

The measured AC50 associated with CO[C@H]1/C=C/O[C@@]2(C)Oc3c(C)c(O)c4c(O)c(c(/C=N/N5CCN(C)CC5)c(O)c4c3C2=O)NC(=O)/C(C)=C\C=C\[C@H](C)[C@H](O)[C@@H](C)[C@@H](O)[C@@H](C)[C@H](OC(C)=O)[C@@H]1C [RIFAMPIN] reads > 30 µM

AC50 reading for Oc1ccc2c(c1)[C@@]13CCCC[C@@]1(O)[C@@H](C2)N(CC1CCC1)CC3 [BUTORPHANOL] : > 30 µM

The value of AC50 measured for the molecule C[C@]12C=CC(=O)N[C@@H]1CC[C@@H]1[C@@H]2CC[C@]2(C)[C@@H](C(=O)Nc3cc(C(F)(F)F)ccc3C(F)(F)F)CC[C@@H]12 [DUTASTERIDE] turned out to be > 10 µM

// sample O=C1CN=C(c2ccccn2)c2cc(Br)ccc2N1 [BROMAZEPAM] , its AC50 was > 10 µM

For record CN1C(C(=O)Nc2ccccn2)=C(O)c2ccccc2S1(=O)=O [PIROXICAM] the listed AC50 is > 10 µM

// field: AC50; key: CN1C[C@H](C(=O)N[C@]2(C)O[C@@]3(O)[C@@H]4CCCN4C(=O)[C@H](Cc4ccccc4)N3C2=O)C=C2c3cccc4[nH]cc(c34)C[C@H]21 [ERGOTAMINE] ; value = 0.3 µM

Record C#C[C@]1(OC(C)=O)CC[C@H]2[C@@H]3CCC4=C/C(=N/O)CC[C@@H]4[C@H]3CC[C@@]21CC [NORGESTIMATE] . Reported AC50: > 30 µM

The reported AC50 of the molecule CC(=O)O[C@H](CC(=O)[O-])C[N+](C)(C)C [ACETYLCARNITINE] was > 30 µM

Value of AC50 reported for the molecule CCC(C)C(CC)C(N)=O (stereo unspecified) [VALNOCTAMIDE] is > 30 µM

Per the record, CCC1(c2ccccc2)CCC(=O)NC1=O (stereo unspecified) [GLUTETHIMIDE] has AC50 of > 10 µM

Memo: Nc1ccc(S(=O)(=O)Nc2nccs2)cc1 [SULFATHIAZOLE] , reported AC50: > 10 µM

For reference, reported AC50 for CN1CCC(=C2c3ccccc3CCc3cccnc32)CC1 [AZATADINE] stands at > 10 µM

// CN(C)CC[C@@H](c1ccc(Cl)cc1)c1ccccn1 [DEXCHLORPHENIRAMINE] : AC50 value = > 30 µM

Noted for CC(=O)[C@@]1(O)CC[C@H]2[C@@H]3C=C(Cl)C4=CC(=O)[C@@H]5C[C@@H]5[C@]4(C)[C@H]3CC[C@@]21C [CYPROTERONE] : its AC50 reads > 10 µM

Data point: CN(C)CCc1c[nH]c2ccc(Cn3cncn3)cc12 [RIZATRIPTAN] ; AC50 = > 30 µM

AC50 reported for this molecule COc1ccc(-c2noc(CC(=O)O)c2-c2ccc(OC)cc2)cc1 [MOFEZOLAC] : > 30 µM

According to the records, this molecule CC(=O)N[C@@H](CS)C(=O)O [ACETYLCYSTEINE] displays AC50 of > 30 µM

Per the records, this molecule ( COc1ccc2nc3cc(Cl)ccc3c(Nc3cc(CN4CCCC4)c(O)c(CN4CCCC4)c3)c2n1 [PYRONARIDINE] ) has AC50 equal to > 30 µM

AC50 in this record for CC(C)[C@H](N)C(=O)OCC(CO)OCn1cnc2c(=O)nc(N)[nH]c21 (stereo partly specified) [VALGANCICLOVIR] : > 30 µM

Consider C[C@]12CC[C@@H]3c4ccc(O)cc4C[C@@H](CCCCCCCCC[S+]([O-])CCCC(F)(F)C(F)(F)F)[C@H]3[C@@H]1CC[C@@H]2O (stereo partly specified) [FULVESTRANT] . Its measured AC50 is > 30 µM

Input Cc1cccc(N2CC(CO)OC2=O)c1 (stereo unspecified) [TOLOXATONE] . Output AC50: > 30 µM

Record summary for O=C(O)c1ccccc1Nc1cc(Cl)ccc1C(=O)O [LOBENZARIT] : reported AC50 = > 30 µM

AC50 reported for this molecule CCCN(CCC)C(=O)Cc1c(-c2ccc(Cl)cc2)nc2ccc(Cl)cn12 [ALPIDEM] : > 30 µM

The molecule listed as Cc1onc(-c2ccccc2)c1-c1ccc(S(N)(=O)=O)cc1 [VALDECOXIB] has a reported AC50 of > 10 µM

Summary for this molecule, C=CC[C@@H]1/C=C(\C)C[C@H](C)C[C@H](OC)[C@H]2O[C@@](O)(C(=O)C(=O)N3CCCC[C@H]3C(=O)O[C@H](/C(C)=C/[C@@H]3CC[C@@H](O)[C@H](OC)C3)[C@H](C)[C@@H](O)CC1=O)[C@H](C)C[C@@H]2OC [TACROLIMUS ANHYDROUS] : AC50 is > 10 µM

// AC50 value for CC(=O)O[C@]1(C(C)=O)CC[C@H]2[C@@H]3C=C(C)C4=CC(=O)CC[C@@H]4[C@H]3CC[C@@]21C [NOMEGESTROL ACETATE] : > 30 µM

// recorded AC50 for C[C@H](Cc1cc2c(c(C(N)=O)c1)N(CCCO)CC2)NCCOc1ccccc1OCC(F)(F)F [SILODOSIN] : 10 µM

Data point: CC1(C)S[C@@H]2[C@H](NC(=O)[C@H](N)c3ccccc3)C(=O)N2[C@H]1C(=O)OCOC(=O)[C@@H]1N2C(=O)C[C@H]2S(=O)(=O)C1(C)C [SULTAMICILLIN] ; AC50 = > 30 µM

AC50 recorded for this molecule, CCCC(CCC)C(N)=O [VALPROMIDE] , is > 10 µM

The measurements presented in this section are drawn from ChEMBL document CHEMBL5291721.
